biological target: T1, human NK1 receptor (human, UniProt P25103 1-407); experiment: competition vs [3H]Substance P, hNK1 CHO cell membranes
T1 construct: whole, on cells; membrane preparations of the transfected cells were used; also called hNK1; human neurokinin-1 receptor
T1 sequence (P25103 whole entry): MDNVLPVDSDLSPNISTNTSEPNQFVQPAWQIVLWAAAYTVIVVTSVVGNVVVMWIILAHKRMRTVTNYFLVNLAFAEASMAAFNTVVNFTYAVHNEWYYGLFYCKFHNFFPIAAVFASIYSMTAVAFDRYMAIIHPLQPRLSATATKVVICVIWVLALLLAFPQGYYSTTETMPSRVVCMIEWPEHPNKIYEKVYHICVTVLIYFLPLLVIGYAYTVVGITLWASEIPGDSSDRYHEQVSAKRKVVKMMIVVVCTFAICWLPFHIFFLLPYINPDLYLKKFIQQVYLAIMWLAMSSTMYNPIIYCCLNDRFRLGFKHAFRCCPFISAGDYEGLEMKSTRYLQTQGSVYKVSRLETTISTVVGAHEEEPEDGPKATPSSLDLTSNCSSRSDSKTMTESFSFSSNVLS
PROPERTY LABEL: Ki (nM)

BINDER: YXGFXPLW (D-Pen at 2 and 5 (written X); disulfide 2-5; C-terminal NH-3,5-Bzl(CF3)2 amide, cyclic; also called TY049) [Tyr[DPenGlyPheDPen]ProLeuTrpNHBn(CF3)2]
PROPERTY LABEL: Ki
TEST RESULT: 0.18

BINDER: YXGFXPLW (D-Pen at 2 and Pen at 5 (written X); disulfide 2-5; C-terminal NH-3,5-Bzl(CF3)2 amide, cyclic; also called TY046) [Tyr[DPenGlyPhePen]ProLeuTrpNHBn(CF3)2]
PROPERTY LABEL: Ki
TEST RESULT: 0.0053
